Where do the numbers come from? From patent US20050004163A1.

- studySystem: μ-opioid receptor (Rattus norvegicus)
- Construct: the forebrains are homogenized in Tris buffer in a Teflon®-glass homogenizer; from tissue; host or cells: forebrain of male Wistar rats (particulate membrane preparation)
- experimentalProtocol: Rat brain μ-opioid receptor binding assay ([3H]DAMGO)
- conditions: MOR binding Ki
observationType: Ki (nM)
Give your result in nM as a bare value.

query: Provide one value: measured Ki of CCNC(=O)c1ccc(C=C2C[C@H]3CC[C@@H](C2)N3CCc2ccccc2)cc1 (single isomer, unassigned) [Cpd 41]
result: 124

query: Provide one value: measured Ki of CCNC(=O)c1ccc(C(=C2CC3CCC(C2)N3CC=C(C)C)c2cc(C(=O)O)cc([N+](=O)[O-])c2)cc1
result: 74.3

query: Provide one value: measured Ki of CCNC(=O)c1ccc(C=C2CC3CCC(C2)N3CCc2ccccc2)cc1
result: 44.3

query: Provide one value: measured Ki of CNC(=O)c1ccc(C=C2CC3CCC(C2)N3CC2CC2)cc1
result: 5620

query: Provide one value: measured Ki of CCNC(=O)c1ccc(C(=C2CC3CCC(C2)N3CC#N)c2ccccc2)cc1
result: 721

query: Provide one value: measured Ki of CCNC(=O)c1ccc(C(=C2CC3CCC(C2)N3Cc2ccccn2)c2ccc(C(=O)O)cc2)cc1
result: 203

query: Provide one value: measured Ki of CCNC(=O)c1ccc(C(=C2CC3CCC(C2)N3Cc2ccc3ccccc3n2)c2cccnc2)cc1
result: 14.6

query: Provide one value: measured Ki of CCNC(=O)c1ccc(C=C2CC3CCC(C2)N3CC=C(C)C)cc1
result: 195

query: Provide one value: measured Ki of CCNC(=O)c1ccc(C(=C2CC3CCC(C2)N3Cc2ccc3ccccc3n2)c2cnccn2)cc1
result: 15

query: Provide one value: measured Ki of CCNC(=O)c1ccc(C(=C2CC3CCC(C2)N3Cc2ccsc2)c2cccc(CO)c2)cc1
result: 13.7

query: Provide one value: measured Ki of CCNC(=O)c1ccc(C(=C2CC3CCC(C2)N3Cc2ccoc2)c2ccc(C(N)=O)cc2)cc1
result: 1.34

query: Provide one value: measured Ki of CCNC(=O)c1ccc(C(=C2CC3CCC(C2)N3Cc2nccs2)c2cccc(CO)c2)cc1
result: 28.6

query: Provide one value: measured Ki of CCNC(=O)c1ccc(C(=C2CC3CCC(C2)N3Cc2ccsc2)c2ccc([N+](=O)[O-])cc2)cc1
result: 4.27

query: Provide one value: measured Ki of CCNC(=O)c1ccc(C(=C2CC3CCC(C2)N3C(=O)Cc2ccccc2)c2cccnc2)cc1
result: 13.3

query: Provide one value: measured Ki of CCN(CC)C(=O)c1ccc(C(=C2CC3CCC(C2)N3C=O)c2ccccc2)cc1
result: 5340

query: Provide one value: measured Ki of CCNC(=O)c1ccc(C(=C2CC3CCC(C2)N3Cc2ccsc2)c2ccc(CO)cc2)cc1
result: 17.2

query: Provide one value: measured Ki of CCNC(=O)c1ccc(C(=C2CC3CCC(C2)N3Cc2ccco2)c2nnn[nH]2)cc1 [Cpd 146]
result: 15.2

query: Provide one value: measured Ki of CCNC(=O)c1ccc(C(=C2CC3CCC(C2)N3Cc2ccccn2)c2cc(N)cc(C(=O)O)c2)cc1
result: 10000

query: Provide one value: measured Ki of CCNC(=O)c1ccc(C(C#N)=C2CC3CCC(C2)N3)cc1
result: 945

query: Provide one value: measured Ki of CCNC(=O)c1ccc(C(=C2CC3CCC(C2)N3Cc2ccco2)c2nnn[nH]2)cc1 (single isomer, unassigned) [Cpd 203]
result: 5450

query: Provide one value: measured Ki of CCNC(=O)c1ccc(C(=C2CC3CCC(C2)N3CCc2ccccc2)c2nnn[nH]2)cc1
result: 63.7

query: Provide one value: measured Ki of CCNC(=O)c1ccc(C(C#N)=C2CC3CCC(C2)N3Cc2ccoc2)cc1 (single isomer, unassigned) [Cpd 210]
result: 2.3

query: Provide one value: measured Ki of CCNC(=O)c1ccc(C(=C2CC3CCC(C2)N3Cc2ccco2)c2cccc(C(=O)O)c2)cc1
result: 119

query: Provide one value: measured Ki of CCNC(=O)c1ccc(C(=C2CC3CCC(C2)N3Cc2ccsc2)c2cccc(-c3nnn[nH]3)c2)cc1 (single isomer, unassigned) [Cpd 216]
result: 12.1

query: Provide one value: measured Ki of CCNC(=O)c1ccc(C(C#N)=C2CC3CCC(C2)N3Cc2ccoc2)cc1 (single isomer, unassigned) [Cpd 209]
result: 2.59

query: Provide one value: measured Ki of CCNC(=O)c1ccc(C(=C2CC3CCC(C2)N3CC(=O)c2cc(C(=O)c3ccc(Cl)cc3)cn2C)c2ccccc2)cc1
result: 551

query: Provide one value: measured Ki of CCNC(=O)c1ccc(C(=C2CC3CCC(C2)N3Cc2csc([N+](=O)[O-])c2)c2cccc(C(C)=O)c2)cc1
result: 184

query: Provide one value: measured Ki of CCNC(=O)c1ccc(C(=C2CC3CCC(C2)N3Cc2cccs2)c2cccc3cccnc23)cc1
result: 155

query: Provide one value: measured Ki of CCNC(=O)c1ccc(C(=C2CC3CCC(C2)N3Cc2ccoc2)c2nnn[nH]2)cc1
result: 212

###

- studySystem: μ-opioid receptor (Rattus norvegicus, UniProt P33535)
- Construct: the forebrains are homogenized in Tris buffer in a Teflon®-glass homogenizer; from tissue; host or cells: forebrain of male Wistar rats (particulate membrane preparation)
- Sequence (P33535 whole entry): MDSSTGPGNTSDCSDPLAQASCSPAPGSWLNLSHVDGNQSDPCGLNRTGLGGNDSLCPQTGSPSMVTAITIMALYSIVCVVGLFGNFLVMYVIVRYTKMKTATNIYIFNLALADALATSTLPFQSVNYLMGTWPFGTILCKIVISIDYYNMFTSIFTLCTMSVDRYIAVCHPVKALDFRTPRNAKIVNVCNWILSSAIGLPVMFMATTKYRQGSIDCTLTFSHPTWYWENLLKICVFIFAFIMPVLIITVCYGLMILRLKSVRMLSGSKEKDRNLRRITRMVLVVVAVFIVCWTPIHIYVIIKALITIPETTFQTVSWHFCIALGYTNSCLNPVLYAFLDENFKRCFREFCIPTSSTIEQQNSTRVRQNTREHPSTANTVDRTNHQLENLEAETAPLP
- experimentalProtocol: Rat brain μ-opioid receptor binding assay ([3H]DAMGO)
- conditions: 10 nM solutions of the compounds, read-out: MOR binding Ki
observationType: pKi
Remember the convention: pKi equals -log10 of concentration in molar.

query: // output pKi; input CCNC(=O)c1ccc(C=C2CC3CCC(C2)N3Cc2ccoc2)cc1 ; system μ-opioid receptor (Rattus norvegicus, UniProt P33535)
result: 6.96

query: // output pKi; input CCNC(=O)c1ccc(C(Br)=C2CC3CCC(C2)N3Cc2ccsc2)cc1 ; system μ-opioid receptor (Rattus norvegicus, UniProt P33535)
result: 8.21

query: // output pKi; input CCNC(=O)c1ccc(C(Br)=C2CC3CCC(C2)N3Cc2c[nH]cn2)cc1 ; system μ-opioid receptor (Rattus norvegicus, UniProt P33535)
result: 7.08

query: // output pKi; input CCN(CC)C(=O)c1ccc(C=C2CC3CCC(C2)N3Cc2ccsc2)cc1 ; system μ-opioid receptor (Rattus norvegicus, UniProt P33535)
result: 5.19

query: // output pKi; input CCNC(=O)c1ccc(C(=C2CC3CCC(C2)N3Cc2ccco2)c2cnc3ccccc3c2)cc1 ; system μ-opioid receptor (Rattus norvegicus, UniProt P33535)
result: 7.09

query: // output pKi; input CCNC(=O)c1ccc(C=C2CC3CCC(C2)N3CCc2ccccc2O)cc1 ; system μ-opioid receptor (Rattus norvegicus, UniProt P33535)
result: 7.72

###

Give measured Ki for each item. Keep answers brief.
- studySystem: μ-opioid receptor (Rattus norvegicus)
- Construct: the forebrains are homogenized in Tris buffer in a Teflon®-glass homogenizer; from tissue; host or cells: forebrain of male Wistar rats (particulate membrane preparation)
- experimentalProtocol: Rat brain μ-opioid receptor binding assay ([3H]DAMGO)
- conditions: MOR binding Ki
Give your result in nM as a bare value.

query: Provide one value: measured Ki of CCNC(=O)c1ccc(C(=C2CC3CCC(C2)N3Cc2nccs2)c2ccc(CO)cc2)cc1
result: 64.2

query: Provide one value: measured Ki of CCNC(=O)c1ccc(C(=C2CC3CCC(C2)N3Cc2ccco2)c2ccc(CC(N)C(=O)O)cc2)cc1 (centres unmarked)
result: 94.6

query: Provide one value: measured Ki of CCNC(=O)c1ccc(C(=C2CC3CCC(C2)N3Cc2ccsc2)c2cc(C(=O)O)cc([N+](=O)[O-])c2)cc1
result: 10000

query: Provide one value: measured Ki of CCNC(=O)c1ccc(C(=C2CC3CCC(C2)N3C(=O)c2cccs2)c2cccnc2)cc1
result: 61.7

query: Provide one value: measured Ki of CCNC(=O)c1ccc(C(=C2C[C@H]3CC[C@@H](C2)N3C(=O)Cc2ccccc2)c2cccnc2)cc1 (single isomer, unassigned) [Cpd 217]
result: 3.07

query: Provide one value: measured Ki of CCNC(=O)c1ccc(C(=C2CC3CCC(C2)N3Cc2sccc2C)c2cnc3ccccc3c2)cc1
result: 561

query: Provide one value: measured Ki of CCNC(=O)c1ccc(C(=C2CC3CCC(C2)N3Cc2ccco2)c2cccc(CO)c2)cc1
result: 8.43

query: Provide one value: measured Ki of CCNC(=O)c1ccc(C(=C2CC3CCC(C2)N3Cc2nccs2)c2ccc(CC(N)C(=O)O)cc2)cc1 (centres unmarked)
result: 152

###

- studySystem: μ-opioid receptor (Rattus norvegicus, UniProt P33535)
- Construct: the forebrains are homogenized in Tris buffer in a Teflon®-glass homogenizer; from tissue; host or cells: forebrain of male Wistar rats (particulate membrane preparation)
- experimentalProtocol: Rat brain μ-opioid receptor binding assay ([3H]DAMGO)
- conditions: MOR binding Ki
Structures can show the parent of a compound that is named as a salt.
Give measured pKi for each item. Keep answers brief.
Remember the convention: pKi equals -log10 of concentration in molar.

query: Provide one value: measured pKi of CCNC(=O)c1ccc(C=C2CC3CCC(C2)N3Cc2ccc(NC(C)=O)cc2)cc1
result: 7.59

query: Provide one value: measured pKi of CCNC(=O)c1ccc(C(=C2CC3CCC(C2)N3CCc2ccccc2)c2cc(C(=O)O)cc([N+](=O)[O-])c2)cc1
result: 8.07

query: Provide one value: measured pKi of CCNC(=O)c1ccc(C(=C2CC3CCC(C2)N3C(=O)c2ccoc2)c2cccnc2)cc1
result: 6.24

query: Provide one value: measured pKi of CCNC(=O)c1ccc(C(=C2CC3CCC(C2)N3Cc2ccco2)c2cccc(-c3nnn[nH]3)c2)cc1
result: 8.63

query: Provide one value: measured pKi of CCNC(=O)c1ccc(C=C2CC3CCC(C2)N3CC(N)Cc2ccccc2)cc1 (stereo not shown) [Cpd 1, Hydrochloride]
result: 6.47

query: Provide one value: measured pKi of CCNC(=O)c1ccc(C(=C2CC3CCC(C2)N3Cc2ccsc2)c2cccc(-c3nnn[nH]3)c2)cc1 (single isomer, unassigned) [Cpd 215]
result: 5.51

query: Provide one value: measured pKi of CCNC(=O)c1ccc(C(=C2CC3CCC(C2)N3Cc2ccccn2)c2cc(C(=O)O)cc([N+](=O)[O-])c2)cc1
result: 7.04

query: Provide one value: measured pKi of CCNC(=O)c1ccc(C(=C2CC3CCC(C2)N3CC=C(C)C)c2cc(N)cc(C(=O)O)c2)cc1
result: 5.32

query: Provide one value: measured pKi of CCNC(=O)c1ccc(C(=C2CC3CCC(C2)N3Cc2cccs2)c2cccc(-c3nnn[nH]3)c2)cc1
result: 6.40

query: Provide one value: measured pKi of CCNC(=O)c1ccc(C(=C2CC3CCC(C2)N3Cc2ccco2)c2ccc(CCC(=O)O)cc2)cc1
result: 7.32

query: Provide one value: measured pKi of CCNC(=O)c1ccc(C(=C2CC3CCC(C2)N3Cc2ccsc2)c2cccc(C(=O)O)c2)cc1
result: 7.46

query: Provide one value: measured pKi of CCNC(=O)c1ccc(C(=C2CC3CCC(C2)N3Cc2ccc(NC(C)=O)cc2)c2ccc3c(c2)OCO3)cc1
result: 7.14

query: Provide one value: measured pKi of CCNC(=O)c1ccc(C(Br)=C2CC3CCC(C2)N3Cc2cccs2)cc1
result: 8.05

query: Provide one value: measured pKi of CCNC(=O)c1ccc(C(=C2CC3CCC(C2)N3Cc2cccc(C(=O)O)c2)c2ccccc2)cc1
result: 6.55

query: Provide one value: measured pKi of CCNC(=O)c1ccc(C(=C2CC3CCC(C2)N3Cc2ccccn2)c2cccc(CO)c2)cc1
result: 8.22

query: Provide one value: measured pKi of CCNC(=O)c1ccc(C(=C2CC3CCC(C2)N3CCc2ccccc2)c2cccc(-c3nnn[nH]3)c2)cc1
result: 7.30

query: Provide one value: measured pKi of CCNC(=O)c1ccc(C(=C2CC3CCC(C2)N3Cc2ccsc2)c2nnn[nH]2)cc1
result: 6.48

query: Provide one value: measured pKi of CCNC(=O)c1ccc(C(=C2CC3CCC(C2)N3)c2nnn[nH]2)cc1 (single isomer, unassigned) [Cpd 201]
result: 4.91

query: Provide one value: measured pKi of CCNC(=O)c1ccc(C(=C2CC3CCC(C2)N3CC=C(C)C)c2cccc(C(=O)O)c2)cc1
result: 6.90
